# method_notes: Maximum absorption wavelength of the absorption spectrum in ethyl acetate solution
# Assay type: physicochemical
# study_conditions: concentration 1×10^−6 mol/L, optical path length 10 mm
endpoint: Maximum Absorption Wavelength (nm)

• CN(C)C(=O)n1c(/N=N/c2c(C(C)(C)C)nn(C)c2N)nc(C#N)c1C#N [(2)] = 439
• COC(=O)n1c(/N=N/c2c(C(C)(C)C)nn(C)c2N)nc(C#N)c1C#N [(5)] = 451
• CC(=O)n1c(/N=N/c2c(C(C)(C)C)nn(C)c2N)nc(C#N)c1C#N [(3)] = 452
• CCN(CC)C(=O)n1c(/N=N/c2c(C(C)(C)C)nn(C)c2N)nc(C#N)c1C#N [Compound (1)] = 438
• Cn1nc(C(C)(C)C)c(/N=N/c2nc(C#N)c(C#N)n2C(=O)c2ccccc2)c1N [(4)] = 454

Reference for the values: patent US8158317B2
